tested system: T1, monomeric human CSF1R ectodomain protein (human, UniProt P07333 20-517)
T1 construct: also called biotinylated monomeric human CSF1R
procedure text: SPR Biacore, IgG captured, monomeric CSF1R analyte
result type: kon (M⁻¹ s⁻¹)
Form entry: value (M⁻¹ s⁻¹) — number only.

Exercise: Please list kon recorded for the binder MH4 (antibody, V domains shown, Designer clone, human IgG4(S228P)/Ckappa IgG) VH: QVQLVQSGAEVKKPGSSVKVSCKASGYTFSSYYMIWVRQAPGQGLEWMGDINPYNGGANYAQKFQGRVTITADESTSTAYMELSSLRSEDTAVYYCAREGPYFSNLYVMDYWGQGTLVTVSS VL: EIVLTQSPATLSLSPGERATLSCRASQSVSYQGENYLAWYQQKPGQAPRLLIYDASNRATGIPARFSGSGSGTDFTLTISSLEPEDFAVYYCQLSNQDLLTFGGGTKVEIK
Key: 1.3e+06
